# Assay System: T1, Cynomolgous TSLPR (on HEK293 cells) (Cynomolgous monkey)
# T1 construct: also called Cyno-TSLPR-HEK293; HEK-Cyno-TSLPR
# T1 chain: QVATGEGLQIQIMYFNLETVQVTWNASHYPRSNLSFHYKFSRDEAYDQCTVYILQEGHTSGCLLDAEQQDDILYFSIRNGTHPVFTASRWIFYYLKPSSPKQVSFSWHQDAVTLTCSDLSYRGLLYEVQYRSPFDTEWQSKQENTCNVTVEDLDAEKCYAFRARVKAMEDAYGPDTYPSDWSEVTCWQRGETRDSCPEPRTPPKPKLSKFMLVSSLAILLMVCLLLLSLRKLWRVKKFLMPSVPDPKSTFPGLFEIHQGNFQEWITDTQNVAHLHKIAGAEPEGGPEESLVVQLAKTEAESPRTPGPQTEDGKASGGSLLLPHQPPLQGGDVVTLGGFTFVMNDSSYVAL
# Test Name: FACS on HEK293 cells transiently transfected with Cynomolgous TSLPR
Recorded Metric: EC50 (ng/mL)

# Binder, Reported Value
rows = [
    ("TSLPR-012_141, CDR grafted (antibody, V domains shown, Humanized (CDR grafted) variant of hamster TSLPR-012; human kappa and human IgG1 or IgG4(S228P,L235E) appear only as embodiments) VH: QVQLVESGGGLVKPGGSLRLSCAASGFSITTSGYYWTWIRQFPGKGLEWMGYIGYNSKTYYNPALKSRITISRDNAKNSLYLQMNSLRAEDTAVYYCARSLYGGYKDAFDSWGQGTLVTVSS VL: DIQMTQSPSSLSASVGDRVTITCRASQSIGTSLHWYQQKPGKAPKLLIKFASRLQSGVPSRFSGSGSGTDFTLTISSLQPEDFATYYCQQSPGFPPTFGQGTKLEIKR", 9.7),
    ("TSLPR-012_75, CDR grafted (antibody, V domains shown, Humanized (CDR grafted) variant of hamster TSLPR-012; human kappa and human IgG1 or IgG4(S228P,L235E) appear only as embodiments) VH: QVQLVESGGGLVKPGGSLRLSCAASGFSITTSGYYWTWIRQFPGKGLEWMGYIGYNSKTYYNPALKSRITISRDNAKNSLYLQMNSLRAEDTAVYYCARSLYGGYKDAFDSWGQGTLVTVSS VL: EIVLTQSPDFQSVTPKEKVTITCRASQSIGTSLHWYQQKPDQSPKLLIKFASRSISGVPSRFSGSGSGTDFTLTINSLEAEDAATYYCQQSPGFPPTFGQGTKLEIKR", 10.8),
    ("TSLPR-012_166, CDR grafted (antibody, V domains shown, Humanized (CDR grafted) variant of hamster TSLPR-012; human kappa and human IgG1 or IgG4(S228P,L235E) appear only as embodiments) VH: QVQLQESGPGLVKPSQTLSLTCTVSGFSITTSGYYWSWIRQHPGKGLEWIGYIGYNSKTYYSPSLKSRVTISRDTSKNQFSLKLSSVTAADTAVYYCARSLYGGYKDAFDSWGQGTLVTVSS VL: DIQMTQSPSSLSASVGDRVTITCRASQSIGTSLHWYQHRPGETPKLLIKFASRSISGVPSRFSGSGSGTDFTLTISSLQPEDFATYYCQQSPGFPPTFGQGTKLEIKR", 8.6),
]
